B1: ACSBG2 (parent)
chain: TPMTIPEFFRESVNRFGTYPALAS

Variants of: B1
Assay info: protein stability index of a GFP-peptide fusion (GPS, HEK-293T) (PSI 1-6); higher = more stable;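 further: lentivirally expressed fusions sorted by FACS into six bins by GFP to DsRed ratio, PSI derived from sequencing read proportions per bin multiplied by bin number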
Test conditions: c terminus: a fixed tail appended
// FALSE strictly below 2 in protein stability index; TRUE otherwise

- TPMTIPEFFRESVNRAGTYPALAS [F16A]: TRUE
- TPMTIPEFFRESVNRFGTYPQLAS [A21Q]: TRUE
- TPMTIPEFFRESVNRFHTYPALAS [G17H]: TRUE
- TPMTIPEFFREFVNRFGTYPALAS [S12F]: FALSE
- TPMTIPEKFRESVNRFGTYPALAS [F8K]: TRUE
- TPMTIPEFFRECVNRFGTYPALAS [S12C]: FALSE
- TPMTIPEFFRESVNRFGTYPALAF [S24F]: FALSE
- TPMFIPEFFRESVNRFGTYPALAS [T4F]: FALSE
- TPMTIPEFFRESVNRQGTYPALAS [F16Q]: TRUE
- TPMTIPEFFRESWNRFGTYPALAS [V13W]: FALSE
- TPMTIPEFFRWSVNRFGTYPALAS [E11W]: TRUE
- TPMTIPEFFRESVNRFGTYPPLAS [A21P]: TRUE
- TPMTIPEFFREIVNRFGTYPALAS [S12I]: FALSE
- KPMTIPEFFRESVNRFGTYPALAS [T1K]: TRUE
- TPMTIPEFFRESVNRFGTYPHLAS [A21H]: TRUE
- TPMTIPEFFRESVNRFGTYMALAS [P20M]: TRUE
- TPMTIPEFFRESVNRFGTWPALAS [Y19W]: TRUE
- TPMTIPEFFDESVNRFGTYPALAS [R10D]: TRUE
- TPMRIPEFFRESVNRFGTYPALAS [T4R]: TRUE
- TPMTIPEFFRESVNRFGTYPALLS [A23L]: TRUE
- TPMTIPMFFRESVNRFGTYPALAS [E7M]: TRUE
- TPMTIPEYFRESVNRFGTYPALAS [F8Y]: TRUE
- TPMTIPEFFRESVNRFGTYPALFS [A23F]: FALSE
- TPMTIPEFFRDSVNRFGTYPALAS [E11D]: TRUE
- TIMTIPEFFRESVNRFGTYPALAS [P2I]: FALSE
- TPMTIPEFFRESVNRFGTYPAFAS [L22F]: TRUE
- TPMTIPEFFRESVNRFGTYPALAE [S24E]: TRUE
- TPMMIPEFFRESVNRFGTYPALAS [T4M]: TRUE
- TPMTIPEFFRESNNRFGTYPALAS [V13N]: TRUE
- TPMTIPEFFRESVNRFGTYPALAH [S24H]: FALSE
- TPMTIREFFRESVNRFGTYPALAS [P6R]: TRUE
- TPMTIPEFFRESVNRFGTYPAKAS [L22K]: TRUE
- TPMKIPEFFRESVNRFGTYPALAS [T4K]: TRUE
- TPMTIPEFFRESVNRFFTYPALAS [G17F]: FALSE
- TPMTIPEFFRESVNVFGTYPALAS [R15V]: TRUE
- TPMTIPEFFRESVNRFGTYPALAK [S24K]: TRUE
- TPMTIPEFFRESVNRFGTYPALWS [A23W]: TRUE
- TPMTIPEFFRESVNRFWTYPALAS [G17W]: TRUE
- TPMTIPEFFRESVNRFGTYPALAM [S24M]: TRUE
- TPMTIPEFFRESVARFGTYPALAS [N14A]: TRUE
- TPMTIPEFFRESVNRFGKYPALAS [T18K]: TRUE
- TPMTIPEFFRFSVNRFGTYPALAS [E11F]: TRUE
- TPITIPEFFRESVNRFGTYPALAS [M3I]: TRUE
- TEMTIPEFFRESVNRFGTYPALAS [P2E]: TRUE
- TPMTIPEFFRESVNRFGTCPALAS [Y19C]: TRUE
- TPMTEPEFFRESVNRFGTYPALAS [I5E]: TRUE
- TPMTIPEFFRLSVNRFGTYPALAS [E11L]: FALSE
- TPHTIPEFFRESVNRFGTYPALAS [M3H]: TRUE
- TPMTIPEFFRESVNRFSTYPALAS [G17S]: TRUE
- TPMTIPEFFRESVNRFGPYPALAS [T18P]: TRUE
- TPMTIPEFFRENVNRFGTYPALAS [S12N]: TRUE
- TPMTIPEFFRESVNLFGTYPALAS [R15L]: TRUE
- TPMTIPEFFRESVNRFGTYVALAS [P20V]: TRUE
- TPMLIPEFFRESVNRFGTYPALAS [T4L]: FALSE
- TPMTIPEFFRESVNRFGTYPALSS [A23S]: TRUE
- TPMTIPEFMRESVNRFGTYPALAS [F9M]: TRUE
- TPMTIPEFFRESVNRFETYPALAS [G17E]: TRUE
- TPMTIPEFFRESVNRFGTVPALAS [Y19V]: TRUE
- TPMTIPEFFRESENRFGTYPALAS [V13E]: TRUE
- TPMTIPEFFRESVNRFGTNPALAS [Y19N]: TRUE
- TPMTIPEFFRESVNRFGTYPALVS [A23V]: FALSE
- TPMTIHEFFRESVNRFGTYPALAS [P6H]: TRUE
- TPMTIPEFFRESVNRFGTRPALAS [Y19R]: TRUE
- TPMTIKEFFRESVNRFGTYPALAS [P6K]: TRUE
- TPMTIPEFFREVVNRFGTYPALAS [S12V]: TRUE
- TPMTSPEFFRESVNRFGTYPALAS [I5S]: TRUE
- TPTTIPEFFRESVNRFGTYPALAS [M3T]: TRUE
- TPMGIPEFFRESVNRFGTYPALAS [T4G]: TRUE
- TPMTIPEFFRESVNRFGTYPALAR [S24R]: TRUE
- TPMTIPEFFRESVNWFGTYPALAS [R15W]: FALSE
- TPMTIPEFFRESVQRFGTYPALAS [N14Q]: TRUE
- TPMTIPEFFRESVNRSGTYPALAS [F16S]: TRUE
- TPMTIPEFFREMVNRFGTYPALAS [S12M]: TRUE
- TWMTIPEFFRESVNRFGTYPALAS [P2W]: FALSE
- IPMTIPEFFRESVNRFGTYPALAS [T1I]: FALSE
- TPMTIPFFFRESVNRFGTYPALAS [E7F]: TRUE
- TPMTIPEFFRESVNRFGTYFALAS [P20F]: TRUE
- TPMTIPEFFRESVNRFGTYKALAS [P20K]: TRUE
- TPMTIPEFFRESVNRFGTYPALAA [S24A]: TRUE
- TPMTGPEFFRESVNRFGTYPALAS [I5G]: TRUE
- TPMTIPEFFRESVNRFGTYPALKS [A23K]: TRUE
- HPMTIPEFFRESVNRFGTYPALAS [T1H]: TRUE
- TSMTIPEFFRESVNRFGTYPALAS [P2S]: TRUE
- TPMTIPEFFRHSVNRFGTYPALAS [E11H]: FALSE
- TPMTIPEFFRESVNDFGTYPALAS [R15D]: TRUE
- TPMTIPEFFREWVNRFGTYPALAS [S12W]: FALSE
- TPMTIPEFFRESVNRFGTYPALAP [S24P]: TRUE
- TPMTIPEFFRESVCRFGTYPALAS [N14C]: FALSE
- TPMTIPEFFCESVNRFGTYPALAS [R10C]: FALSE
